# Lookup of reported self-cleavage keyed by entry
B1: HDV Ribozyme (parent)
chain: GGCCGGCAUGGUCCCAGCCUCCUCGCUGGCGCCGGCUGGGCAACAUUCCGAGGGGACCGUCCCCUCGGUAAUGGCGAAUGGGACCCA

variants of: B1; assay: self-cleavage, relative activity (ratio to wild type); higher = more cleavage; co-transcriptional

SEQUENCE VARIANT | self-cleavage
C32G G53C | 0.213
U9G A56U | 1.01
G6A A77U | 0.18
C26G G80A | 0.789
G10C A16C | 0.88
C41U C58A | 0.962
C33U A43C | 0.248
G29C A78U | 0.0773
G35C C62A | 0.277
G6C C24U | 0
G55A A87U | 1
U60G A71C | 1.21
G17C U79A | 0.26
C62G G68C | 0.196
G29A A45G | 0.142
C62U C63U | 1.11
C24G C62G | 0.0415
C7G A56G | 0.208
C61G A78C | 0.177
C24A G76U | 0.842
G28A U46A | 0.0326
A42C U60G | 0.269
G67A G82A | 0.285
C14G G67C | 0.554
G25C C75G | 0.185
A83C C85U | 0.268
G50U C85G | 0.872
C26U C48G | 1.07
C13U C63U | 0.696
G50C A51U | 0.755
C32G G67A | 0.16
U12G C30U | 0.375
C22G C44G | 0.0437

Sourced from the RNAGym collection of RNA variant scans (doi:10.7554/elife.80360)
